- TGT: Cytochrome P450 1A2 (Homo sapiens, UniProt P05177)
- Sequence (P05177 whole entry): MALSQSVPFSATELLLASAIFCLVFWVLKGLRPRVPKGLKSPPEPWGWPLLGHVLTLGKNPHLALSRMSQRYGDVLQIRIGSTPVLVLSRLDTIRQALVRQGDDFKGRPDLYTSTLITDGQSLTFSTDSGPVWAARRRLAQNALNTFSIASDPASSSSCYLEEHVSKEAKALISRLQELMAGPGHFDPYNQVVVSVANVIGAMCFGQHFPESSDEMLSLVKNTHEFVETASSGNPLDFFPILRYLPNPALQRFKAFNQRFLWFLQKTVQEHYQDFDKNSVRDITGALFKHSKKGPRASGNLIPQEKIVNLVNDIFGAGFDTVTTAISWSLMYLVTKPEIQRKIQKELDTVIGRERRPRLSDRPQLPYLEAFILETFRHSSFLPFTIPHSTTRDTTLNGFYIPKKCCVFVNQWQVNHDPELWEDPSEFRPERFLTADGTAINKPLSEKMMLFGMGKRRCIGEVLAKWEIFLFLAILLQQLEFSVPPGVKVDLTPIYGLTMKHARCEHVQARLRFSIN
- ASSAY METHOD TEXT: Inhibition of human CYP1A2 bound to yeast microsomal membrane using 3-cyano-7-ethoxycoumarin as substrate after 10 mins by fluorescence assay
Listed below: pIC50 values for each entry.
Schema: pIC50 number; meaning minus log10 of the concentration expressed in molar units.

>>> print(df.to_string())
                                smiles_text  readout  readout_value
0        COc1cccc(OC)c1/C=C/C(=O)c1ccc[nH]1    pIC50           5.00
1        COc1ccc(/C=C/C(=O)c2ccc[nH]2)cc1Br    pIC50           4.77
2  O=C(/C=C/c1cc([N+](=O)[O-])ccc1Cl)c1ccc[nH]1    pIC50           4.96
3             O=C(/C=C/c1ccccc1F)c1ccc[nH]1    pIC50           5.66
4      COc1ccc(/C=C/C(=O)c2ccc[nH]2)c(OC)c1    pIC50           5.00

Problem: Given the compound O=C(/C=C/C=C/c1ccccc1)c1ccc[nH]1 , what is its reported pIC50?
Result: 4.98

Problem: Given the compound O=C(/C=C/c1ccccc1Cl)c1ccc[nH]1 , what is its reported pIC50?
Result: 6.15

###

- TGT: UniProt:P10635
- ASSAY METHOD TEXT: Inhibition of human CYP2D6 bound to yeast microsomal membrane using 7-ethoxy-methyloxy-3-cyanocoumarin as substrate after 10 mins by fluorescence assay
- Assay type: ADME
Listed below: IC50 values for each entry.
Dear colleague, please return just the value in µM, with no unit written.

                              smiles_text  readout_value
0  COc1cc(/C=C/C(=O)c2ccc[nH]2)cc(OC)c1OC             14

Problem: Given the compound O=C(/C=C/c1cccc(Br)c1)c1ccc[nH]1 , what is its reported IC50?
Result: 14

Problem: Given the compound O=C(/C=C/c1ccccc1F)c1ccc[nH]1 , what is its reported IC50?
Result: 16

###

- TGT: Cytochrome P450 1A1 (Homo sapiens)
- Sequence (P04798 whole entry): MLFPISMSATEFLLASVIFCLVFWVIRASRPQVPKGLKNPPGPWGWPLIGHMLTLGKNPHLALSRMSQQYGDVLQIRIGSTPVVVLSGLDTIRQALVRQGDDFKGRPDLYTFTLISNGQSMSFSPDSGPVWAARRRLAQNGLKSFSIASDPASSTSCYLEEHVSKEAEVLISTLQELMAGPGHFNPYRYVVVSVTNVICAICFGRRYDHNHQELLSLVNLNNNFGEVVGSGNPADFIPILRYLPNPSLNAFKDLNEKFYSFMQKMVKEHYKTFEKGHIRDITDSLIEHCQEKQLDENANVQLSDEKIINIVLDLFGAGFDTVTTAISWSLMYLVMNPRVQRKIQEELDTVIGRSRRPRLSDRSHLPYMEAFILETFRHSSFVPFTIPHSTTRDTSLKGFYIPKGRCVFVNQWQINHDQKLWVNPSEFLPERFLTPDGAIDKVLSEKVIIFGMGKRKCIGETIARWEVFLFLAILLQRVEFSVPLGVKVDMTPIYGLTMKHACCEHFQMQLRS
- ASSAY METHOD TEXT: Inhibition of human CYP1A1 bound to yeast microsomal membrane using 7-ethoxyresorufin as substrate after 10 mins by fluorescence assay
pIC50: −log10 of the molar value.
READOUT: pIC50

Known results for molecules:
                            smiles_text                                 tgt  readout_value
0    COc1ccc(/C=C/C(=O)c2ccc[nH]2)cc1Br  Cytochrome P450 1A1 (Homo sapiens)         < 4.70
1   CN(C)c1ccc(/C=C/C(=O)c2ccc[nH]2)cc1  Cytochrome P450 1A1 (Homo sapiens)         < 4.70
2  O=C(O)c1ccc(/C=C/C(=O)c2ccc[nH]2)cc1  Cytochrome P450 1A1 (Homo sapiens)         < 4.70
3      COc1ccc(/C=C/C(=O)c2ccc[nH]2)cc1  Cytochrome P450 1A1 (Homo sapiens)         < 4.70

Problem: Given the molecule O=C(/C=C/c1c2ccccc2cc2ccccc12)c1ccc[nH]1 , what is its reported pIC50?
Result: < 4.70

Problem: Given the molecule O=C(/C=C/c1ccc(OC(F)(F)F)cc1)c1ccc[nH]1 , what is its reported pIC50?
Result: < 4.70

###

- TGT: Cytochrome P450 1B1 (Homo sapiens, UniProt Q16678)
- Sequence (Q16678 whole entry): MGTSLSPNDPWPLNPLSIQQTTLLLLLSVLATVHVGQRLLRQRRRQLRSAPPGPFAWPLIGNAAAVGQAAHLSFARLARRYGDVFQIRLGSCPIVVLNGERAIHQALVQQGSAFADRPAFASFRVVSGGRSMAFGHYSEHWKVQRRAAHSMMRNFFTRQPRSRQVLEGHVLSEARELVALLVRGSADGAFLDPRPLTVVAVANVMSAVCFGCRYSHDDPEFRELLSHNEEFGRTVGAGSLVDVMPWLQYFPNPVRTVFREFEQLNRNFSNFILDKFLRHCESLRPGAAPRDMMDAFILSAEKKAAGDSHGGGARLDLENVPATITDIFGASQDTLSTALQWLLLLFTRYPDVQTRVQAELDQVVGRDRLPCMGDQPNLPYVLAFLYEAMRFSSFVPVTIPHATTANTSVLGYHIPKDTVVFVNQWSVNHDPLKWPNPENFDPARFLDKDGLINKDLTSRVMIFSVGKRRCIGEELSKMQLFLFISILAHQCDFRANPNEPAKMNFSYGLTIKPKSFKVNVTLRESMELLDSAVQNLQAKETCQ
- ASSAY METHOD TEXT: Inhibition of human CYP1B1 bound to yeast microsomal membrane using 7-ethoxyresorufin as substrate after 10 mins by fluorescence assay
READOUT: IC50 (µM)
Dear colleague, please return just the value in µM, with no unit written.

In [3]: df
Out[3]:
                        smiles_text  readout  endpoint_unit  readout_value
0  O=C(/C=C/c1cccc(Br)c1)c1ccc[nH]1     IC50             µM             13

Problem: Given the compound COc1ccccc1/C=C/C(=O)c1ccc[nH]1 , what is its reported IC50?
Result: 0.9

###

- TGT: Cytochrome P450 2D6 (Homo sapiens)
- Sequence (P10635 whole entry): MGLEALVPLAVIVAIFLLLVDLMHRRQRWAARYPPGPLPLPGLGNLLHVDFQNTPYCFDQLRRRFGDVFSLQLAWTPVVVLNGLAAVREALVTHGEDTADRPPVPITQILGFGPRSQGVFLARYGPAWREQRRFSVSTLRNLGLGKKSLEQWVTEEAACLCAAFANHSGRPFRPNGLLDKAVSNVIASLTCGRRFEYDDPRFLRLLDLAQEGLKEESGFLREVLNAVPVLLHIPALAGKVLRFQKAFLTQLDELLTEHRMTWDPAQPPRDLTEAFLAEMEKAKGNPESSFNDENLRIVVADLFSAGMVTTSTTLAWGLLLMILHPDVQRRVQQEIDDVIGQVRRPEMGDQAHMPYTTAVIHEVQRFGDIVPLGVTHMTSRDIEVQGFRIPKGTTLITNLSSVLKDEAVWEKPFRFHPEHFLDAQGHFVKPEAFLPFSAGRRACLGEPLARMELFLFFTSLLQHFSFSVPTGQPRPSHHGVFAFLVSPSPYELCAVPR
- ASSAY METHOD TEXT: Inhibition of human CYP2D6 bound to yeast microsomal membrane using 7-ethoxy-methyloxy-3-cyanocoumarin as substrate after 10 mins by fluorescence assay
- Format: ADME
READOUT: pIC50
Schema: pIC50 number; meaning minus log10 of the concentration expressed in molar units.

>>> print(df.to_string())
                            smiles_text                                 tgt  readout_value
0      O=C(/C=C/C=C/c1ccccc1)c1ccc[nH]1  Cytochrome P450 2D6 (Homo sapiens)           4.92
1  COc1cc(/C=C/C(=O)c2ccc[nH]2)cc(OC)c1  Cytochrome P450 2D6 (Homo sapiens)           4.82

Next:
Problem: Given the molecule COc1cccc(OC)c1/C=C/C(=O)c1ccc[nH]1 , what is its reported pIC50?
Result: 4.74

###

Listed below: IC50 values for each entry.
- TGT: Cytochrome P450 1A1 (Homo sapiens, UniProt P04798)
- Sequence (P04798 whole entry): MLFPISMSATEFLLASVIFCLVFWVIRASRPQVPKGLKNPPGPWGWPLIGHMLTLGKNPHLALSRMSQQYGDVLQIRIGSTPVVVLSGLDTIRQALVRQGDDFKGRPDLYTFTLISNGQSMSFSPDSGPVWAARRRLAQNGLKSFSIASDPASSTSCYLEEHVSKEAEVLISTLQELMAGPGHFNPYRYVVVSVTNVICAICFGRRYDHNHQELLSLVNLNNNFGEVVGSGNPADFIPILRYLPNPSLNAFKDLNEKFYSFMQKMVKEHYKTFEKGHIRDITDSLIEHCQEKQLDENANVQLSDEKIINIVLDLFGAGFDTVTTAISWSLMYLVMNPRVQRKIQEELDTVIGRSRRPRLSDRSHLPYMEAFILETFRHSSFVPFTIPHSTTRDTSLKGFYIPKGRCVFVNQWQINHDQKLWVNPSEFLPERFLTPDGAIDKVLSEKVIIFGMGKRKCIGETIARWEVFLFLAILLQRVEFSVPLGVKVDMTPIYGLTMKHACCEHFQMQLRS
- ASSAY METHOD TEXT: Inhibition of human CYP1A1 bound to yeast microsomal membrane using 7-ethoxyresorufin as substrate after 10 mins by fluorescence assay

Known results for compounds:
>>> print(df.to_string())
                                smiles_text  readout  readout_value
0  O=C(/C=C/c1cc([N+](=O)[O-])ccc1Cl)c1ccc[nH]1     IC50        > 20 µM
1          O=C(/C=C/c1cccc(Br)c1)c1ccc[nH]1     IC50        > 20 µM

Problem: Given the compound O=C(/C=C/c1ccccc1F)c1ccc[nH]1 , what is its reported IC50?
Result: > 20 µM
